- Assay: inhibitors of larval lipid processing in zebrafish, primary screen, whole organism, PED6 fluorescence, gall bladder and intestine (AID 686);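 also: larvae 5 to 7 days old with five fish per well; signal comes from phospholipase A2 cleavage of quenched PED6 carried via bile; overnight exposure to compound and PED6 before scoring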
- Cond: Zebrafish larvae PED6 lipid processing, fluorescence scoring; screened at 20 µM (by protocol)
Activity calls are given as the source filed them.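 The calls were made as follows: active = a full or partial loss of lipid-probe fluorescence in the fish gall bladder, intestine or both, judged by eye; inactive = no fluorescence loss, or compound toxic to the fish.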
Measured attribute: outcome

Examples with their reported outcome follow.
| Compound | Val |
| --- | --- |
| CC1(C)Cc2c(C#N)c(OCC(=O)c3ccc(Cl)cc3)nc(-c3ccoc3)c2CO1 | inactive |
| CCOC(=O)CSc1nc(N)c(C#N)c(-c2ccc(OC)cc2)c1C#N | inactive |
| Cc1cc(C)c(C#N)c(SCC(=O)NC2CC2)n1 | inactive |
| CC1(C)CC(=O)C(C=NCC(O)c2ccccc2)=C(O)C1 (stereo unspecified) | inactive |

Challenge: Return outcome (reported value) for this compound: "CCn1c(-c2ccco2)n[nH]c1=S"
Response given: inactive

Challenge: Tell me measured outcome for "Cn1c(=O)c2c(nc(NCc3ccc4c(c3)OCO4)n2Cc2ccc(F)cc2)n(C)c1=O" please.
Response given: inactive

Challenge: Determine its reported outcome: "Cc1cc(OCCN2CCOCC2)nc2ccccc12"
Response given: inactive

Challenge: Identify outcome associated with the compound "Cc1ccccc1C(=O)c1ccc2c(c1)n(C)c(=O)n2C"
Response given: inactive

Challenge: Fill in outcome for record "COc1ccc(C2(CN(C(C)=O)C(C)=O)CCCC2)cc1OC"
Response given: inactive

Challenge: Please look at this compound and report its outcome: "CN(C)CCN(Cc1ccccc1)c1ccccn1"
Response given: inactive

Challenge: Supply reported outcome belonging to this compound: "Cn1c(SCC(=O)N2CCOCC2)nnc1-c1cccc(NC(=O)c2ccccc2F)c1"
Response given: inactive
